Where these numbers come from: ChEMBL document CHEMBL1201862

Test system: OVCAR-8
Experimental details: NCI tumour cell line growth inhibition, 48 h
Active and inactive are the calls of the source. No stated cut-off is given here; in the data, active = GI50 up to about 1.1 µM and inactive = higher.
Labels: active, inactive

{"Molecule": "COC1OC(C(C)O)C2OC(C)(C)OC12 (stereo unspecified)", "Classification": "inactive"}
{"Molecule": "CC1=NN2C(=N)/C(=C/c3ccco3)C(=O)N=C2S1", "Classification": "inactive"}
{"Molecule": "COc1cc2c(c(OC)c1)/C(=C/Sc1ccccc1)C(=O)N(C(C)(C)C)C2", "Classification": "inactive"}
{"Molecule": "CC1(C)OC2C(O)CN3CCS[C@H]3C2O1 (stereo partly specified)", "Classification": "inactive"}
{"Molecule": "COC(=O)c1ccccc1CC1Cc2cccc(C)c2C1=O (stereo unspecified)", "Classification": "inactive"}
{"Molecule": "CCOC(=O)c1sc2nc(SC)nc3c2c1NCN3C", "Classification": "inactive"}
{"Molecule": "Nc1ccc(-c2nc3ccccc3s2)cc1", "Classification": "inactive"}
{"Molecule": "COc1cc([C@@H]2c3cc4c(cc3[C@@H](Nc3ccc(NC(=O)c5cc([N+](=O)[O-])cn5C)cc3)[C@H]3COC(=O)[C@H]23)OCO4)cc(OC)c1O", "Classification": "active"}
{"Molecule": "CCOc1ccccc1NC(=O)CCc1nnc(S)[nH]1", "Classification": "inactive"}
{"Molecule": "N#CC(Nc1ccccc1)c1ccc(C(C#N)Nc2ccccc2)cc1 (stereo unspecified)", "Classification": "inactive"}
{"Molecule": "CCOP(=O)(C/C=C/Cn1nc(Br)c(=O)[nH]c1=O)OCC", "Classification": "inactive"}
